assay: in vitro; settings: rat, gh3-tre-luc cells, AC50 (uM) modified / 1000, Tox21_110001=Tox21_111807; viability, 1 nM T3 present, 24 h
OBSERVED_PROPERTY: CC50 at 24 h

# input Item C[C@@H](Cc1ccccc1)N(C)C [Dimetamfetamine] has what recorded CC50 at 24 h?
# output > 50 µM

----------
experiment: in vitro; details: rat, gh3-tre-luc cells, AC50 (uM) modified / 1000
Reported values of CC50 at 24 h for individual entries

These solved cases illustrate the format of a correct answer.
>>> print(df.to_string())
                                   molecule  observed_property  reported
0  CCO[Si](CCCNC(N)=O)(OCC)OCC [1-[3-(Triethoxysilyl)propyl]urea]       CC50 at 24 h   > 90 µM
1  O=C(OC1CCCCC1)c1ccccc1C(=O)OC1CCCCC1 [Dicyclohexyl phthalate]       CC50 at 24 h   40.2 µM
2  Cc1ccccc1S(N)(=O)=O [o-Toluenesulfonamide]       CC50 at 24 h   > 90 µM
3             CC(C)N1C(=O)c2ccccc2NS1(=O)=O       CC50 at 24 h   > 90 µM

# input Item O=C(c1ccccc1)c1ccc(O)cc1 [4-Hydroxybenzophenone] has what recorded CC50 at 24 h?
# output > 90 µM

----------
Reported values of CC50 at 24 h for individual entries
assay: in vitro; conditions: rat, gh3-tre-luc cells, AC50 (uM) modified / 1000
Structures can show the parent of a compound that is named as a salt.

These solved cases illustrate the format of a correct answer.
COMPOUND	CC50 at 24 h
CC[N+](CC)(CC(=O)Nc1c(C)cccc1C)Cc1ccccc1 [Denatonium benzoate]	> 50 µM
Cn1cnc2ncnc(N)c21	> 50 µM
CCCc1c(OCCCCc2nnn[nH]2)ccc(C(C)=O)c1O	> 50 µM

# input Item Nc1ccc(N)c2ccccc12 has what recorded CC50 at 24 h?
# output > 90 µM

# input Item OC[C@@H](O)[C@H](O)[C@H](O)[C@@H](O)CO has what recorded CC50 at 24 h?
# output > 50 µM

# input Item OCCc1ccccc1 has what recorded CC50 at 24 h?
# output > 50 µM

# input Item CN[C@@H]1[C@@H](O)[C@@H](O[C@@H]2[C@@H](O)[C@H](O[C@H]3OC(CN)=CC[C@H]3N)[C@@H](N)C[C@H]2N)OC[C@]1(C)O [Sisomicin sulfate] has what recorded CC50 at 24 h?
# output > 20 µM

# input Item Cc1cc(-c2ccc(N=Nc3cc(S(=O)(=O)O)c4ccccc4c3N)c(C)c2)ccc1N=Nc1cc(S(=O)(=O)O)c2ccccc2c1N has what recorded CC50 at 24 h?
# output 62.5 µM

# input Item Cc1nc(-c2ccc(Cl)cc2)oc1COC(C)(C)C(=O)O has what recorded CC50 at 24 h?
# output > 50 µM

# input Item CC(C)(c1ccccc1)c1cc(-n2nc3ccccc3n2)c(O)c(C(C)(C)c2ccccc2)c1 has what recorded CC50 at 24 h?
# output > 50 µM

# input Item COC(F)(F)C(Cl)Cl has what recorded CC50 at 24 h?
# output > 50 µM

# input Item N[C@H](CC(=O)O)C(=O)O has what recorded CC50 at 24 h?
# output > 50 µM

# input Item O=C(C1CCCCC1)N1CC(=O)N2CCc3ccccc3C2C1 (centres unmarked) has what recorded CC50 at 24 h?
# output > 90 µM

# input Item CCCCCCCC(=O)CC[C@@H]1[C@@H](C/C=C\CCCC(=O)OC(C)C)[C@@H](O)C[C@H]1O has what recorded CC50 at 24 h?
# output 18 µM

# input Item C=C1/C(=C\C=C2/CCC[C@]3(C)[C@@H]([C@H](C)CCCC(C)(C)O)CC[C@@H]23)C[C@@H](O)C[C@@H]1O has what recorded CC50 at 24 h?
# output 20.1 µM

# input Item OC[C@H]1O[C@@H](O[C@@H]2[C@@H](CO)OC(O)(CO)[C@H]2O)[C@H](O)[C@@H](O)[C@H]1O (mixture of isomers) has what recorded CC50 at 24 h?
# output > 50 µM

# input Item Cc1ccc(Nc2nccc(N(C)c3ccc4c(C)n(C)nc4c3)n2)cc1S(N)(=O)=O has what recorded CC50 at 24 h?
# output > 50 µM
